target: Amine oxidase [flavin-containing] A (Homo sapiens, UniProt P21397); assay: Inhibition of recombinant human MAO-A expressed in baculovirus infected BTI insect cells at 10^-4 to 10^-3 uM using tyramine as substrate pretreated for 30 mins followed by substrate addition incubated for 30 mins measured at 5 mins interval by horse-radish peroxidase/amplex red-based fluorometric method relative to control; details: 0.5 h
Sequence (P21397 whole entry): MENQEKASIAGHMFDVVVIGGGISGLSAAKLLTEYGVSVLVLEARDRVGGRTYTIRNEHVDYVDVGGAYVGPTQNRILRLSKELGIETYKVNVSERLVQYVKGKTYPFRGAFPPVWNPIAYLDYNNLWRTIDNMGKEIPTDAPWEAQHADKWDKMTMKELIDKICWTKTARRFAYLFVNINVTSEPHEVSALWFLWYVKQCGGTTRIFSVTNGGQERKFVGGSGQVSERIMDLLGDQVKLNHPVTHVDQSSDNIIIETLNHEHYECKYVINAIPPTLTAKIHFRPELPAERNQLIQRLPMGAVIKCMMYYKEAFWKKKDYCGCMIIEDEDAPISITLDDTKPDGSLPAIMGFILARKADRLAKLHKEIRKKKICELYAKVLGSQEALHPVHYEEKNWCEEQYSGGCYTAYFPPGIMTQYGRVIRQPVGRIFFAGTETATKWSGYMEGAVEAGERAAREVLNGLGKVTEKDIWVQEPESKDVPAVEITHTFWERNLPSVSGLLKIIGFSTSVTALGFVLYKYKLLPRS
reported.endpoint: inhibition (INH)

Would you please look over these solved cases?
C#CCn1c(-c2ccc(C(=O)N/N=C/c3cc(OC)cc(OC)c3)cc2)nc2ccccc21	< 50%
C#CCn1c(-c2ccc(C(=O)N/N=C/c3cccs3)cc2)nc2ccccc21	Not Active
C#CCn1c(-c2ccc(C(=O)N/N=C/c3ccccc3OC)cc2)nc2ccccc21	Not Active
C#CCn1c(-c2ccc(C(=O)N/N=C/c3ccc(Cl)cc3)cc2)nc2ccccc21	< 50%
C#CCn1c(-c2ccc(C(=O)N/N=C/c3cccc(OC)c3)cc2)nc2ccccc21	< 50%

molecule `C#CCn1c(-c2ccc(C(=O)N/N=C/c3cccc(O)c3)cc2)nc2ccccc21` , inhibition (INH) observed: Not Active

molecule `C#CCn1c(-c2ccc(C(=O)N/N=C/c3cccn3C)cc2)nc2ccccc21` , inhibition (INH) observed: < 50%

molecule `C#CCn1c(-c2ccc(C(=O)N/N=C/c3ccc[nH]3)cc2)nc2ccccc21` , inhibition (INH) observed: Not Active
